assayed_system: T1, canine NGF tagged at the C-terminus with the Flag tag (canine, UniProt A0A8I3PYI3 122-241)
T1 construct: mature; Expressed with baculovirus technology; also called feline NGF (processed form identical)
T1 sequence (A0A8I3PYI3 entry or part of it): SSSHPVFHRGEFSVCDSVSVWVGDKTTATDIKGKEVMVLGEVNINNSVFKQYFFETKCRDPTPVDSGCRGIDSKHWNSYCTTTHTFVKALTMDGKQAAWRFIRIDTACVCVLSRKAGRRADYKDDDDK
method_notes: SPR off-rate screen, Fab-SASA on BSA chip
property_measured: koff (s⁻¹)
Supply the numeric figure in s⁻¹, leaving out any unit text.

binder	koff (s⁻¹)
felinized clone 101 Fab-SASA variant T30R (VH) (Fab, V domains shown, not shown: small tags and cut ends) VH: DVQLVESGGDLVKPGGSLRLTCVASGLSLRSSSMSWVRQAPGKGLQWVSTIYSNGGTYYTDSVKGRFTISKDNAENTLYLQMNNLKTEDTATYYCASIYYYDADYLHWYFDFWGQGALVTVSS VL: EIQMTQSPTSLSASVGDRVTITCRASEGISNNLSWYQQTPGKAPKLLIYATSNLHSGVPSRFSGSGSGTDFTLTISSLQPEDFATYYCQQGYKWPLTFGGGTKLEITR	0.00073
felinized clone 101 Fab-SASA variant R24F (VL) (Fab, V domains shown, not shown: small tags and cut ends) VH: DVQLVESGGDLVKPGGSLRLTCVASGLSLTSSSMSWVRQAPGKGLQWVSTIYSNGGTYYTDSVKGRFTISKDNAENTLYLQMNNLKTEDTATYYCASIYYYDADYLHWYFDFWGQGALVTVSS VL: EIQMTQSPTSLSASVGDRVTITCFASEGISNNLSWYQQTPGKAPKLLIYATSNLHSGVPSRFSGSGSGTDFTLTISSLQPEDFATYYCQQGYKWPLTFGGGTKLEITR	0.000655

Quick one: koff of felinized clone 101 Fab-SASA variant F112N (VH) (Fab, V domains shown, not shown: small tags and cut ends) VH: DVQLVESGGDLVKPGGSLRLTCVASGLSLTSSSMSWVRQAPGKGLQWVSTIYSNGGTYYTDSVKGRFTISKDNAENTLYLQMNNLKTEDTATYYCASIYYYDADYLHWYFDNWGQGALVTVSS VL: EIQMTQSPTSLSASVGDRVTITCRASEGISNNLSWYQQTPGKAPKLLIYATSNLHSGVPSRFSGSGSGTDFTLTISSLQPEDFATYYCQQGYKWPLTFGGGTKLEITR ?
0.000643

Quick one: koff of felinized clone 101 Fab-SASA variant T60D (VH) (Fab, V domains shown, not shown: small tags and cut ends) VH: DVQLVESGGDLVKPGGSLRLTCVASGLSLTSSSMSWVRQAPGKGLQWVSTIYSNGGTYYDDSVKGRFTISKDNAENTLYLQMNNLKTEDTATYYCASIYYYDADYLHWYFDFWGQGALVTVSS VL: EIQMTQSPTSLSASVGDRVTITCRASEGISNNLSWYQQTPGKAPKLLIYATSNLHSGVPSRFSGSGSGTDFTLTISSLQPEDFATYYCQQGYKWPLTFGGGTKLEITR ?
0.000567

Quick one: koff of felinized clone 101 Fab-SASA variant S34A (VL) (Fab, V domains shown, not shown: small tags and cut ends) VH: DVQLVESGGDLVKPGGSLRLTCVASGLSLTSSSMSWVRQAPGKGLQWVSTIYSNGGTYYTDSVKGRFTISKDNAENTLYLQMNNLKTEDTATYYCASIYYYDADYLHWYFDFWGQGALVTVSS VL: EIQMTQSPTSLSASVGDRVTITCRASEGISNNLAWYQQTPGKAPKLLIYATSNLHSGVPSRFSGSGSGTDFTLTISSLQPEDFATYYCQQGYKWPLTFGGGTKLEITR ?
0.000783
